testTarget: T1, TWEAKR on human cells (NCI-H292, 786-O, A498, SK-HEP-1, HEK293) (human, UniProt Q9NP84 28-129)
T1 sequence: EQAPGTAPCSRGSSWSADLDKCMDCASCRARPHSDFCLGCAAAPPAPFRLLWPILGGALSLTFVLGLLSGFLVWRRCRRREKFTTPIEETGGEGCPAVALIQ
method: cell-based or functional assay
assayReadout: Agonistic activity [%] of the TWEAK-ind. agonism (NF-kappaB reporter gene assay, HEK293) (%)

[[record]]
binder = "TPP-7006 (antibody, human IgG1, kappa, V domains shown, also called anti-TWEAKR AK1C; AK1C) VH: QVQLQQSGPELVKPGASVKMSCKASGYTFTDFIIAWVKQRTGQGLEWIGEIYPGTGRTYYSEKFRGKATLTADKSSNTAYMQLSSLTSVDSAVYFCARRTIYYDYDGDYWGQGTTLTVSS VL: DIVMTQAAFSNPVTLGTSASISCRSSKSLLHSNGITYLYWYLQKPGQSPQLLIYQMSNLASGVPDRFSSSGSGTDFTLRISRVEAEDVGVYYCAHNLELPWTFGGGTKLELKR"
recordednumber = 3

[[record]]
binder = "TPP-7075 (antibody, human IgG1, kappa, V domains shown) VH: QVQLVQSGAEVKKPGASVKVSCKASGYTFTDFIIAWVKQAPGQGLEWIGEIYPGTGRTYYSEKFRGKATLTADTSTSTAYMELSSLRSEDTAVYFCARRTIYYDYDGDYWGQGTLVTVSS VL: DIVMTQSPLSLPVTPGEPASISCRSSKSLLHSSGITYLYWYLQKPGQSPQLLIYQMSNLASGVPDRFSGSGSGTDFTLKISRVEAEDVGVYYCAHNLELPWTFGQGTKVEIKR"
recordednumber = 15

[[record]]
binder = "ITEM-4 (antibody, V domains shown, Murine IgG2b, bought (eBioscience 13-9018); also called anti-TWEAKR AK1A; AK1A) VH: QVQLQQSGPELVKPGASVKMSCKASGYTFTDFIIAWVKQRTGQGLEWIGEIYPGTGRTYYSEKFRGKATLTADKSSNTAYMQLSSLTSVDSAVYFCARRTIYYDYDGDYWGQGTTLTVSS VL: DIVMTQAAFSNPVTLGTSASISCRSSKSLLHSNGITYLYWYLQKPGQSPQLLIYQMSNLASGVPDRFSSSGSGTDFTLRISRVEAEDVGVYYCAHNLELPWTFGGGTKLELK"
recordednumber = 14

[[record]]
binder = "TPP-7005 (antibody, human IgG1, kappa, V domains shown, also called anti-TWEAKR AK1B; AK1B) VH: QVQLVQSGAEVKKPGASVKISCKVSGYTFTDFIIAWVKQAPGKGLEWIGEIYPGTGRTYYSEKFRGKATLTADKSTSTAYMELSSLRSEDTAVYYCARRTIYYDYDGDYWGQGTTVTVSS VL: DIVMTQSPLSLPVTPGEPASISCRSSKSLLHSNGITYLYWYLQKPGQSPQLLIYQMSNLASGVPDRFSSSGSGTDFTLKISRVEAEDVGVYYCAHNLELPWTFGGGTKVEIKR"
recordednumber = 0.1

[[record]]
binder = "TPP-7007 (antibody, human IgG1, kappa, V domains shown, also called anti-TWEAKR AK1D; AK1D) VH: QVQLVQSGAEVKKPGASVKVSCKASGYTFTDFIIAWVKQAPGQGLEWIGEIYPGTGRTYYSEKFRGKATLTADTSTSTAYMELSSLRSEDTAVYFCARRTIYYDYDGDYWGQGTLVTVSS VL: DIVMTQSPLSLPVTPGEPASISCRSSKSLLHSNGITYLYWYLQKPGQSPQLLIYQMSNLASGVPDRFSGSGSGTDFTLKISRVEAEDVGVYYCAHNLELPWTFGQGTKVEIKR"
recordednumber = 4

